target: Luciferin 4-monooxygenase (Photuris pensylvanica); assay: Counterscreen for Luciferase (Kinase-Glo TM) Inhibition; settings: ATP luminescence, 8 min; series mostly up to 38.3 µM
In all, about 200,000 compounds went through this assay and about 560 (0.28%) were called active. The full list was thinned out, with actives kept by preference.
value.kind: activity change, negative = inhibition

Consider the following illustrative entries.
O=c1c2ccccc2nc2n1C1(CCCCC1)Cc1ccccc1-2 : inactive
Cn1c(=O)n(C)c2cc(C(=O)Nc3ccc4c(c3)OCO4)ccc21 : inactive
COc1ccc(/C=C2\NC(=O)[C@@H]3Cc4ccccc4CN3C2=O)cc1 : inactive
Cc1ccc(S(=O)(=O)N2CCC(=O)N([C@H](COCc3ccccc3)Cc3ccccc3)CC2)cc1 : inactive
COc1ccc(Br)cc1C(=O)NC(=S)Nc1cc(-c2nc3ccccc3[nH]2)ccc1C : inactive
Cc1ccc(C(=O)CNc2ccc(F)cc2)cc1 : inactive
COc1ccc(-c2nc3c(c4c2C[C@H](c2ccccc2)OC4)CN(S(=O)(=O)c2c(C)noc2C)CC3)c(C)c1 : -5.25% [at 7.66 µM] (inactive)
Cc1ccc(-c2nc3ccccc3[nH]2)cc1NC(=O)c1sc2ccccc2c1Cl : inactive
C=CC1(C)CC(=O)C2(O)C(C)(O1)C(OC(C)=O)C(O)C1C(C)(C)CCC(O)C12C (stereo not given) : inactive

Continue with the compound presented below.
Query: Could you share which activity change, negative = inhibition value was measured for `COC(=O)c1ccc(NCC(=O)N2CCCCCC2)cc1` ?
Reply: inactive

----------
Target: Luciferin 4-monooxygenase (Photuris pensylvanica) (UniProt Q27757)
Experiment: Counterscreen for Luciferase (Kinase-Glo TM) Inhibition
Settings: ATP luminescence, 8 min; series mostly up to 38.3 µM
Protocol: NCGC Assay Overview: NIH Molecular Libraries Screening Centers Network [MLSCN] NIH Chemical Genomics Center [NCGC] […] NCGC Assay Protocol Summary: Four uL of substrate mix (final concentration, 50 mM imidazole pH 7.2, 50 mM KCl, 7 mM MgCl2, 10 uM ATP, 0.01% Tween 20, 0.05% BSA) was dispensed into white 1536 well plates. […] Following 8-minute incubation at ambient temperature, luminescence was measured by a ViewLux (Perkin Elmer) at 5 seconds exposure/plate.
About 560 (0.28%) of roughly 200,000 compounds were called active. This excerpt belongs to a sample that is enriched for actives.
value.kind: activity change, negative = inhibition

Answered examples (8):
O=C(NCc1ccco1)O[C@@H]1C(=O)c2cc(Br)ccc2O[C@H]1c1ccc2c(c1)OCO2 : inactive
COc1ccc(C(=O)NC(=S)Nc2ccc(N3CCCC3)cc2)cc1OC : inactive
CCc1cccc(OC2OC(CO)C(O)C(O)C2NC(C)=O)c1 (centres undefined) : inactive
CC[C@H](C)[C@@H](NC(=O)O[C@@H]1C(=O)c2cc(OC)ccc2O[C@H]1c1cccc(OC)c1)C(=O)OC : inactive
CCCCC/C=C\CC1OC1CCCCCCCC(=O)O (centres undefined) : inactive
COc1cc(/C=C/CO)cc(OC)c1O[C@@H]1O[C@H](CO)[C@@H](O)[C@H](O)[C@H]1O : inactive
CCCCCCCC[C@@H](O)/C=C/C=C/C=C\[C@@H](O)CCCC(=O)O : inactive
COC(=O)C1=C(C(=O)OC)[C@@H]2N(Cc3ccccc3)c3ccccc3[C@@]23C[C@@H](C(=O)OC)N(S(=O)(=O)c2ccc(C(F)(F)F)cc2)C3=N1 : -5.51% [at 7.66 µM] (inactive)

Now for the compound whose activity change, negative = inhibition we want.
Query: Which activity change, negative = inhibition value belongs to `COc1cccc(OC)c1C(=O)Nc1ccc(N2CCCCC2)cc1` ?
Reply: inactive

----------
target: Luciferin 4-monooxygenase (Photuris pensylvanica); experiment: Counterscreen for Luciferase (Kinase-Glo TM) Inhibition; settings: ATP luminescence, 8 min; series mostly up to 38.3 µM; note: % is set by controls: 0 for no effect and ±100 for the full control effect; nearly all actives have a fitted effect of over 60% in size
Screen size: about 200,000 compounds; about 560 (0.28%) were called active. This is one part of a sample in which actives are shown more often than they occur.
value.kind: activity change, negative = inhibition

Answered examples (5):
N/C(=N\OC(=O)Cc1ccc([N+](=O)[O-])cc1)c1ccccn1 : inactive
CCCCC/C=C\C/C=C\CCCCCCCCCC(=O)NCC(=O)O : inactive
CC(=O)/C(C)=N/O : inactive
CCCCC[C@H](O)/C=C/[C@@H]1[C@@H](CC(=O)CCC(=O)O)[C@@H](O)C[C@H]1O : inactive
COC(=O)CCCC1=CC2=CC(=O)C(C)(OC(=O)c3cccs3)C(=O)C2=CN1c1ccc(CO)cc1 (stereo not given) : -0.663% [at 7.66 µM] (inactive)

Query: Checklist item: activity change, negative = inhibition tested on Luciferin 4-monooxygenase (Photuris pensylvanica), entry `Cc1ccc(-c2cn3cc([N+](=O)[O-])ccc3n2)cc1` , value?
Reply: inactive

Query: What would you report for `COc1ccc(-c2cn3ccsc3n2)cc1` ?
Reply: inactive

Query: Same question, C=CCC1CCC(=O)N2CCCC12 (stereo not given) this time
Reply: inactive

Query: Entry to check: `COc1ccc(-c2nc3c(c4c2C[C@H](c2ccccc2)OC4)CN(C(=O)c2cccnc2)CC3)c(C)c1`
Reply: -3.92% [at 7.66 µM] (inactive)

Query: Quick one: `COC(=O)C1=C(C(=O)OC)[C@@H]2N(C)c3ccccc3[C@@]23C[C@@H](C(=O)OC)N(C(C)=O)C3=N1`
Reply: 0.685% [at 7.66 µM] (inactive)

----------
target: Luciferin 4-monooxygenase (Photuris pensylvanica) (UniProt Q27757); assay: Counterscreen for Luciferase (Kinase-Glo TM) Inhibition; conditions: ATP luminescence, 8 min; series mostly up to 38.3 µM; note: % is set by controls: 0 for no effect and ±100 for the full control effect; nearly all actives have a fitted effect of over 60% in size
About 560 (0.28%) of roughly 200,000 compounds were called active. The list comes from a sample in which actives are over-represented; it also holds close analogues and randomly drawn compounds.
value.kind: activity change, negative = inhibition

Take a look at these entries with their results.
COCCN1C(=O)N[C@@H](CCc2ccccc2)[C@H](C(C)=O)[C@H]1C : -8.66% [at 7.66 µM] (inactive)
CC(=NCc1ccco1)C1=C(O)c2ccccc2C1=O : inactive
CC(C)C1=CC2=CC[C@H]3[C@](C)(C(=O)O)CCC[C@]3(C)C2CC1 (stereo not given in full) : inactive
CCc1ccc(-c2cc(C(=O)NCc3ccco3)c3ccccc3n2)s1 : inactive
COc1ccc(-c2nc3c(c4c2C[C@H](c2ccccc2)OC4)CN(C(=O)c2ccco2)CC3)c(C)c1 : -7.1% [at 7.66 µM] (inactive)

Query: Which activity change, negative = inhibition reading was recorded for the molecule `CCCCCCCC/C=C\CCCCCCCC(=O)OC[C@H](CO)OC(C)=O` ?
Reply: inactive

Query: Note, next up: `Cc1cc2oc(=O)cc(-c3ccccc3)c2c(C)c1-c1ccc(OC(F)(F)F)cc1`
Reply: inactive

----------
Target: Luciferin 4-monooxygenase (Photuris pensylvanica)
Test: Counterscreen for Luciferase (Kinase-Glo TM) Inhibition; note: % is set by controls: 0 for no effect and ±100 for the full control effect; nearly all actives have a fitted effect of over 60% in size
Details: ATP luminescence, 8 min; series mostly up to 38.3 µM
Protocol: NCGC Assay Overview: NIH Molecular Libraries Screening Centers Network [MLSCN] NIH Chemical Genomics Center [NCGC] […] NCGC Assay Protocol Summary: Four uL of substrate mix (final concentration, 50 mM imidazole pH 7.2, 50 mM KCl, 7 mM MgCl2, 10 uM ATP, 0.01% Tween 20, 0.05% BSA) was dispensed into white 1536 well plates. […] Following 8-minute incubation at ambient temperature, luminescence was measured by a ViewLux (Perkin Elmer) at 5 seconds exposure/plate.
Hit rate of the full screen: of about 200,000 compounds, about 560 (0.28%) were called active. What follows is part of a selection rich in actives, with near analogues and random picks from the rest.
value.kind: activity change, negative = inhibition

Known activity change, negative = inhibition results, listed for orientation:
COc1ccc2nc(Nc3nc4cc5c(cc4s3)OCCO5)sc2c1 : inactive
O=C(C[n+]1ccccc1)N/N=C/c1ccc(O)cc1 : inactive
COC(=O)N/N=C/c1ccc(/C=N/NC(=O)OC)cc1 : inactive
CCCCC/C=C\C/C=C\CCCCCCCCCC(N)=O : inactive
Brc1ccc2nc(N3CCCC3)sc2c1 : inactive

Query: Give the measured activity change, negative = inhibition of `C[C@H]1Cc2c(COc3ccccc3)nc3c(c2CO1)CN(C(=O)NCc1ccco1)CC3` .
Reply: -0.257% [at 7.66 µM] (inactive)

----------
Biological target: Luciferin 4-monooxygenase (Photuris pensylvanica) (UniProt Q27757)
Assay: Counterscreen for Luciferase (Kinase-Glo TM) Inhibition; note: % is set by controls: 0 for no effect and ±100 for the full control effect; nearly all actives have a fitted effect of over 60% in size
Details: ATP luminescence, 8 min; series mostly up to 38.3 µM
Experimental: NCGC Assay Overview: NIH Molecular Libraries Screening Centers Network [MLSCN] NIH Chemical Genomics Center [NCGC] […] NCGC Assay Protocol Summary: Four uL of substrate mix (final concentration, 50 mM imidazole pH 7.2, 50 mM KCl, 7 mM MgCl2, 10 uM ATP, 0.01% Tween 20, 0.05% BSA) was dispensed into white 1536 well plates. […] Following 8-minute incubation at ambient temperature, luminescence was measured by a ViewLux (Perkin Elmer) at 5 seconds exposure/plate.
Out of some 200,000 compounds screened, about 560 (0.28%) were called active. What follows is part of a selection rich in actives, with near analogues and random picks from the rest.
value.kind: activity change, negative = inhibition

Solved entries (count: 5):
C=CCOC(=O)NC(c1ccc(F)c(F)c1)C(C(=O)COC)C(=O)OC (stereo not given) : inactive
Cc1ccsc1C(=O)OCC(=O)c1cc2ccccc2o1 : inactive
COc1ccc(-c2nc3c(c4c2C[C@H](c2ccccc2)OC4)CN(C(=O)C2CC2)CC3)c(C)c1 : -7.98% [at 7.66 µM] (inactive)
O=c1oc2ccccc2cc1-c1csc(Nc2ccc(O)cc2)n1 : inactive
COC(=O)C/C=C/[C@@H](C)[C@H](NC(=O)OCC(Cl)(Cl)Cl)c1ccccc1 : inactive

Query: Request the reported activity change, negative = inhibition associated with `CCCCS(=O)(=O)N1C2=NC(C(=O)OC)=C(C(=O)OC)[C@@H]3N(Cc4ccccc4)c4ccccc4[C@]23C[C@H]1C(=O)OC`
Reply: -7.24% [at 7.66 µM] (inactive)

Query: What do we get for `C[C@H]1Cc2c(-c3ccccc3)nc3c(c2CO1)CN(C(=O)C1CC1)CC3` ?
Reply: -7.42% [at 7.66 µM] (inactive)

Query: Thanks! And `COc1ccc(-c2c(C)cc3oc(=O)cc(-c4ccccc4)c3c2C)cc1C=O` ?
Reply: inactive

Query: Another compound: `COc1ccc2nc(Nc3nc(-c4cc5ccccc5oc4=O)cs3)sc2c1`
Reply: inactive

Query: Next record, please: COC(=O)C(C(=O)OC)C1c2ccccc2C=C(C2CC2)N1C(=O)OC (stereo not given)
Reply: inactive
